The measured values listed here are drawn from the NIST ThermoML archive (doi:10.1021/je1012235).

Details: 303.15 K; 101.33 kPa; Liquid
Experimental Endpoint: viscosity (mPa·s)

A selection of reference data follows.
Molecule: CCCCCC/C=C\CCCCCCCC(=O)OC [methyl (Z)-9-hexadecenoate]
viscosity, mPa·s: 3.289

Molecule: CC/C=C\C/C=C\C/C=C\CCCCCCCC(=O)OCC [ethyl 9,12,15-octadecatrienoate]
viscosity, mPa·s: 3.583

Molecule: CCCCCCCC/C=C\CCCCCCCCCC(=O)OC [methyl cis-11-eicosenoate]
viscosity, mPa·s: 6.528

Molecule: CCCCC/C=C\C/C=C\CCCCCCCC(=O)OCC [ethyl linoleate]
viscosity, mPa·s: 4.307

A. CC/C=C\C/C=C\C/C=C\CCCCCCCC(=O)OC [methyl (Z,Z,Z)-9,12,15-octadecatrienoate]
B. CCCCCCCC/C=C\CCCCCCCCCCCC(=O)OC [methyl (Z)-13-docosenoate]
Query string: // which entry has the larger viscosity value, A or B ? Mark your selection by writing its label.
Result string: B
(B: 7.907 mPa·s, A: 3.667 mPa·s)

----------
Details: 328.15 K; 101.33 kPa; Liquid; Vibrating tube method
Experimental Endpoint: mass density (kg/m3)

Compound: CCCCCCCCCCCCCCCCCCCC(=O)OCC [ethyl eicosanoate]
mass density [kg/m3]: 834.1

Compound: CCCCCCCC/C=C\CCCCCCCCCCCC(=O)OC [methyl (Z)-13-docosenoate]
mass density [kg/m3]: 845.9

Compound: CCCCCCCC/C=C\CCCCCCCCCC(=O)OC [methyl cis-11-eicosenoate]
mass density [kg/m3]: 848.8

Compound: CCCCC/C=C\C/C=C\CCCCCCCC(=O)OCC [ethyl linoleate]
mass density [kg/m3]: 856.9

Compound: CCCCCC/C=C\CCCCCCCC(=O)OC [methyl (Z)-9-hexadecenoate]
mass density [kg/m3]: 842.5

Compound: CC/C=C\C/C=C\C/C=C\CCCCCCCC(=O)OC [methyl (Z,Z,Z)-9,12,15-octadecatrienoate]
mass density [kg/m3]: 876

Compound: CCCCCCCCCCCCCCCCCCCC(=O)OC [methyl eicosanoate]
mass density [kg/m3]: 838.7

Compound: CC/C=C\C/C=C\C/C=C\CCCCCCCC(=O)OCC [ethyl 9,12,15-octadecatrienoate]
mass density [kg/m3]: 867.2

----------
Conditions: 358.15 K; 101.33 kPa; Liquid
Experimental Endpoint: viscosity (mPa·s)

Molecule: CCCCCCCCCCCCCCCCCCCCCCCC(=O)OC [methyl tetracosanoate]
Unit Abbrev: mPa·s
Recorded Result: 3.48
//
Molecule: CCCCCCCCCCCCCCCCCCCC(=O)OCC [ethyl eicosanoate]
Unit Abbrev: mPa·s
Recorded Result: 2.569
//
Molecule: CCCCCC/C=C\CCCCCCCC(=O)OC [methyl (Z)-9-hexadecenoate]
Unit Abbrev: mPa·s
Recorded Result: 1.29
//
Molecule: CCCCCCCCCCCCCCCCCCCC(=O)OC [methyl eicosanoate]
Unit Abbrev: mPa·s
Recorded Result: 2.461
//
Molecule: CCCCCCCC/C=C\CCCCCCCCCC(=O)OC [methyl cis-11-eicosenoate]
Unit Abbrev: mPa·s
Recorded Result: 2.174
//
Molecule: CCCCC/C=C\C/C=C\CCCCCCCC(=O)OCC [ethyl linoleate]
Unit Abbrev: mPa·s
Recorded Result: 1.676
//
Molecule: CCCCCCCC/C=C\CCCCCCCCCCCC(=O)OC [methyl (Z)-13-docosenoate]
Unit Abbrev: mPa·s
Recorded Result: 2.51
//
Molecule: CC/C=C\C/C=C\C/C=C\CCCCCCCC(=O)OCC [ethyl 9,12,15-octadecatrienoate]
Unit Abbrev: mPa·s
Recorded Result: 1.538

A. CC/C=C\C/C=C\C/C=C\CCCCCCCC(=O)OC [methyl (Z,Z,Z)-9,12,15-octadecatrienoate]
B. CCCCCCCCCCCCCCCCCCCCCC(=O)OC [methyl docosanoate]
Query string: Identify the item whose viscosity is the smaller number: A or B // output: label of the selected item
Result string: A

----------
Details: 363.15 K; 101.33 kPa; Liquid; Vibrating tube method
Experimental Endpoint: mass density (kg/m3)

Compound: CCCCCC/C=C\CCCCCCCC(=O)OC [methyl (Z)-9-hexadecenoate]
mass density, kg/m3: 816
//
Compound: CCCCCCCCCCCCCCCCCCCCCC(=O)OC [methyl docosanoate]
mass density, kg/m3: 813.7
//
Compound: CCCCC/C=C\C/C=C\CCCCCCCC(=O)OCC [ethyl linoleate]
mass density, kg/m3: 831.6
//
Compound: CCCCCCCC/C=C\CCCCCCCCCCCC(=O)OC [methyl (Z)-13-docosenoate]
mass density, kg/m3: 821.7
//
Compound: CCCCCCCCCCCCCCCCCCCCCCCC(=O)OC [methyl tetracosanoate]
mass density, kg/m3: 813.5
//
Compound: CCCCCCCCCCCCCCCCCCCC(=O)OC [methyl eicosanoate]
mass density, kg/m3: 813.8
//
Compound: CCCCCCCC/C=C\CCCCCCCCCC(=O)OC [methyl cis-11-eicosenoate]
mass density, kg/m3: 824.1
//
Compound: CCCCCCCCCCCCCCCCCCCC(=O)OCC [ethyl eicosanoate]
mass density, kg/m3: 809.7
//
Compound: CC/C=C\C/C=C\C/C=C\CCCCCCCC(=O)OCC [ethyl 9,12,15-octadecatrienoate]
mass density, kg/m3: 841.6
//
Compound: CC/C=C\C/C=C\C/C=C\CCCCCCCC(=O)OC [methyl (Z,Z,Z)-9,12,15-octadecatrienoate]
mass density, kg/m3: 850.3

----------
Conditions: 278.15 K; 101.33 kPa; Liquid; Vibrating tube method
Experimental Endpoint: mass density (kg/m3)

Compound: CCCCCCCC/C=C\CCCCCCCCCCCC(=O)OC [methyl (Z)-13-docosenoate]
mass density [kg/m3]: 881.6
//
Compound: CCCCCCCC/C=C\CCCCCCCCCC(=O)OC [methyl cis-11-eicosenoate]
mass density [kg/m3]: 884.8
//
Compound: CC/C=C\C/C=C\C/C=C\CCCCCCCC(=O)OCC [ethyl 9,12,15-octadecatrienoate]
mass density [kg/m3]: 904.6
//
Compound: CCCCC/C=C\C/C=C\CCCCCCCC(=O)OCC [ethyl linoleate]
mass density [kg/m3]: 893.8
//
Compound: CC/C=C\C/C=C\C/C=C\CCCCCCCC(=O)OC [methyl (Z,Z,Z)-9,12,15-octadecatrienoate]
mass density [kg/m3]: 913.2
//
Compound: CCCCCC/C=C\CCCCCCCC(=O)OC [methyl (Z)-9-hexadecenoate]
mass density [kg/m3]: 880.4

----------
Settings: 298.15 K; 101.33 kPa; Liquid
Experimental Endpoint: viscosity (mPa·s)

Compound: CC/C=C\C/C=C\C/C=C\CCCCCCCC(=O)OC [methyl (Z,Z,Z)-9,12,15-octadecatrienoate]
viscosity / mPa·s: 4.043

Compound: CCCCC/C=C\C/C=C\CCCCCCCC(=O)OCC [ethyl linoleate]
viscosity / mPa·s: 4.807

Compound: CCCCCC/C=C\CCCCCCCC(=O)OC [methyl (Z)-9-hexadecenoate]
viscosity / mPa·s: 3.647

Compound: CCCCCCCC/C=C\CCCCCCCCCCCC(=O)OC [methyl (Z)-13-docosenoate]
viscosity / mPa·s: 9.141

I. CCCCCCCC/C=C\CCCCCCCCCC(=O)OC [methyl cis-11-eicosenoate]
II. CC/C=C\C/C=C\C/C=C\CCCCCCCC(=O)OCC [ethyl 9,12,15-octadecatrienoate]
Query string: Lab note: check whether I or II has the lower measured viscosity. State your choice using its label.
Result string: II
(II: 3.961 mPa·s, I: 7.488 mPa·s)

----------
Settings: 338.15 K; 101.33 kPa; Liquid
Experimental Endpoint: viscosity (mPa·s)

Molecule: CCCCCCCC/C=C\CCCCCCCCCC(=O)OC [methyl cis-11-eicosenoate]
Recorded Result: 3.028
//
Molecule: CCCCCC/C=C\CCCCCCCC(=O)OC [methyl (Z)-9-hexadecenoate]
Recorded Result: 1.728
//
Molecule: CC/C=C\C/C=C\C/C=C\CCCCCCCC(=O)OC [methyl (Z,Z,Z)-9,12,15-octadecatrienoate]
Recorded Result: 1.966

1. CCCCC/C=C\C/C=C\CCCCCCCC(=O)OCC [ethyl linoleate]
2. CCCCCCCCCCCCCCCCCCCCCC(=O)OC [methyl docosanoate]
Query string: I'd appreciate it if you could identify which of 1 and 2 has the greater viscosity. Returns: label corresponding to the selected item.
Result string: 2

----------
Conditions: 338.15 K; 101.33 kPa; Liquid; Vibrating tube method
Experimental Endpoint: mass density (kg/m3)

Molecule: CCCCCCCCCCCCCCCCCCCCCC(=O)OC [methyl docosanoate]
mass density [kg/m3]: 831
//
Molecule: CCCCCC/C=C\CCCCCCCC(=O)OC [methyl (Z)-9-hexadecenoate]
mass density [kg/m3]: 834.9
//
Molecule: CCCCCCCCCCCCCCCCCCCC(=O)OC [methyl eicosanoate]
mass density [kg/m3]: 831.4
//
Molecule: CCCCCCCC/C=C\CCCCCCCCCC(=O)OC [methyl cis-11-eicosenoate]
mass density [kg/m3]: 841.7
//
Molecule: CCCCCCCCCCCCCCCCCCCCCCCC(=O)OC [methyl tetracosanoate]
mass density [kg/m3]: 830.5
